Listed next: entries and their corresponding Absolute IC50 (CHOP).
Biological target: DNA damage-inducible transcript 3 protein (Mus musculus)
Sequence (P35639 whole entry): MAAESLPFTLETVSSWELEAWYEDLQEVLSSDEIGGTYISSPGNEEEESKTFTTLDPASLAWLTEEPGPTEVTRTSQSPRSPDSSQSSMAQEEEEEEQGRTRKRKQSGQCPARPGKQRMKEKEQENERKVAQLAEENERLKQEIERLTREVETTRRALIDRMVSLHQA
Format: functional, Cricetulus griseus
Write the answer as a number in µM, unit excluded.

Req: Quick check: Absolute IC50 (CHOP) on DNA damage-inducible transcript 3 protein (Mus musculus), item `CCOc1ccc2nc(NC(=O)CSc3nnnn3C3CCCCC3)sc2c1` ?
Resp: 10

Req: Quick check: Absolute IC50 (CHOP) on DNA damage-inducible transcript 3 protein (Mus musculus), item `COc1ccccc1NC(=O)c1c(Nc2ccccc2C)sc(C(=O)Nc2cccc(Cl)c2)c1N` ?
Resp: 10

Req: Quick check: Absolute IC50 (CHOP) on DNA damage-inducible transcript 3 protein (Mus musculus), item `O=C(Nc1cccc(C(F)(F)F)c1)NC1CCN(S(=O)(=O)c2ccc(F)cc2)CC1` ?
Resp: 10

Req: Quick check: Absolute IC50 (CHOP) on DNA damage-inducible transcript 3 protein (Mus musculus), item `Oc1ccc(Cl)cc1-c1cc(-c2ccccc2)[nH]n1` ?
Resp: 10

Req: Quick check: Absolute IC50 (CHOP) on DNA damage-inducible transcript 3 protein (Mus musculus), item O=C(CCl)N1CCN2C(=O)c3ccccc3C12c1ccc(Cl)cc1 (stereo not given) ?
Resp: 10

Measured values drawn from ChEMBL document CHEMBL1201862 for this set.
